From: ChEMBL document CHEMBL4834440

Experiment: Cytotoxicity against African green monkey Vero cells assessed as cell viability at 100 ug/ml measured after 24 hrs relative to control
Assay type: cell-based
Conditions: chlorocebus sabaeus, at 100 µg/mL, read-out: Activity

COMPOUND: O=C(C1=CN(CCc2ccccc2)C(NCCc2ccccc2)CC1)C(F)(F)F (stereo unspecified)
READING_UNIT: %
viability at 24 h, 100 ug/ml: 80

###

Assay: Selectivity index, ratio of IC50 for African green monkey Vero cells to MIC for antimycobacterial activity against Mycobacterium tuberculosis FURG-2
Assay type: toxicity
Conditions: read-out: Selectivity Index

COMPOUND: O=C(C1=CN(CCc2ccccc2)C(NCCc2ccccc2)CC1)C(F)(F)F (stereo unspecified)
selectivity ratio: > 10
